Entries and their measured AtheNA signal follow.
- System tested: T1, sclerosis autoantigen (Scl-70) (UniProt P11387 2-765, limits assumed)
- T1 sequence (looked up): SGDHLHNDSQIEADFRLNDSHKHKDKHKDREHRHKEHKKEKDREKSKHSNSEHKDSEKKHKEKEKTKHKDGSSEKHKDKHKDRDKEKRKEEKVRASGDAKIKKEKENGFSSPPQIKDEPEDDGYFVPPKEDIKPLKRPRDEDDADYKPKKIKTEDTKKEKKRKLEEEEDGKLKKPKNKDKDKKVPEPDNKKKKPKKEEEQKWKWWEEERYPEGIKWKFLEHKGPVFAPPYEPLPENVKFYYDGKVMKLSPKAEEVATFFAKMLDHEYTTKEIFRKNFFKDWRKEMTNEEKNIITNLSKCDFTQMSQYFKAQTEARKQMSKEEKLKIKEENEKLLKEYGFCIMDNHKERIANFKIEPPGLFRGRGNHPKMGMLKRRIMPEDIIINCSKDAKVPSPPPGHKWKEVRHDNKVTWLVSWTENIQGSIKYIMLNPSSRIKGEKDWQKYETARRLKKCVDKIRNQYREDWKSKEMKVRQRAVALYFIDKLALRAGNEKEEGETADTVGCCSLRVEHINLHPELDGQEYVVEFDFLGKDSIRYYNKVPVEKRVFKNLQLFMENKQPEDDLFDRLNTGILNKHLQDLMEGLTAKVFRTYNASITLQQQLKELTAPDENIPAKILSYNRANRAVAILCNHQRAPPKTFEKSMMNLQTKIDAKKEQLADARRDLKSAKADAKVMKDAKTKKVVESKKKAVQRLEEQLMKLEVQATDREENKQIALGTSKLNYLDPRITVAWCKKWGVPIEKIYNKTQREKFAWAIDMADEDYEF
- Assay name: AtheNA Multi-Lyte ANA, Ab at 12.5 ug/ml;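 also: monoclonal antibodies screened for binding to a panel of nuclear autoantigens (SSA, SSB, Sm, RNP, Scl-70, Jo-1, dsDNA, CentB, histones), with anti-HIV and anti-RSV antibodies as controls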
Answer as a number with no unit attached.

Ab7968 (antibody, IgG1, V domains shown, Recombinant human antibody with IgG1 heavy chain backbone and kappa light chain constant; they begin at LVESGGG and MTQSP; also called mAb 7968; mAb7968) VH: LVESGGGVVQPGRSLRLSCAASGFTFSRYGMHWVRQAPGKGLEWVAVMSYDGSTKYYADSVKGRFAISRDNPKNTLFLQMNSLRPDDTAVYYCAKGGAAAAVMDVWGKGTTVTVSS VL: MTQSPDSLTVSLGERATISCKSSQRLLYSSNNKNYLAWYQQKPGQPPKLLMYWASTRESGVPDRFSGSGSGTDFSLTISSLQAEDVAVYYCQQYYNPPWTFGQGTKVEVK	3

Answer with reported AtheNA signal of Ab7960/293i (antibody, IgG1, V domains shown, Recombinant human antibody with IgG1 heavy chain backbone and kappa light chain constant; they begin at LVESGGG and MTQSP; also called mAb 7960; mAb7960) VH: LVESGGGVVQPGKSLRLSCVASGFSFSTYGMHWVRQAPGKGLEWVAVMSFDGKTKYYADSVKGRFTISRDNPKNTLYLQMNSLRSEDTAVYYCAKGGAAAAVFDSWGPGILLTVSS VL: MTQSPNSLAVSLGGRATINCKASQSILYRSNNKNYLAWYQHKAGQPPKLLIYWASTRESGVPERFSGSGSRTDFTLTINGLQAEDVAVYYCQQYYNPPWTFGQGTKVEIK
3
